System: 233499-124-R-J3-PDC spheroids with HUVEC/MSC, viability
Test: Anticancer human tumor 233499-124-R-J3-PDC patient-derived colon adenocarcinoma cell line growth inhibition [PI3K]
Conditions: second compound 3.16 µM; first compound 0.000316 µM; active compounds read low
Value kind: viability, T/C (%)

Compound | Value kind | Unit tag | Measured number
CC(=O)c1c(C)c2cnc(Nc3ccc(N4CCNCC4)cn3)nc2n(C2CCCC2)c1=O + CC(Nc1ncnc2nc[nH]c12)c1cc2cccc(Cl)c2c(=O)n1-c1ccccc1 | viability, T/C | % | 106
Cn1ncnc1[C@H]1c2n[nH]c(=O)c3cc(F)cc(c23)N[C@@H]1c1ccc(F)cc1 + CC(Nc1ncnc2nc[nH]c12)c1cc2cccc(Cl)c2c(=O)n1-c1ccccc1 | viability, T/C | % | 79.9
Cn1ncnc1[C@H]1c2n[nH]c(=O)c3cc(F)cc(c23)N[C@@H]1c1ccc(F)cc1 + Cc1nc(NC(=O)N2CCCC2C(N)=O)sc1-c1ccnc(C(C)(C)C(F)(F)F)c1 | viability, T/C | % | 52.6

* * *

Test system: 233499-124-R-J3-PDC spheroids with HUVEC/MSC, viability
Experiment: Anticancer human tumor 233499-124-R-J3-PDC cell line growth inhibition [PI3K];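 also: spheroids exposed to agents for seven days before readout; percent viability relative to DMSO vehicle control taken as 100%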
Conditions: second compound 0.01 µM; first compound 1 µM; active compounds read low
Value kind: viability, T/C (%)

Compound | Value kind | Measured number
CC1(C)CCC(CN2CCN(c3ccc(C(=O)NS(=O)(=O)c4ccc(NCC5CCOCC5)c([N+](=O)[O-])c4)c(Oc4cnc5[nH]ccc5c4)c3)CC2)=C(c2ccc(Cl)cc2)C1 + COc1c(OCCCN2CCOCC2)ccc2c3n(c(=NC(=O)c4cnc(N)nc4)nc12)CCN3 | viability, T/C | 108
C#Cc1c(F)ccc2cc(O)cc(-c3ncc4c(N5CC6CCC(C5)N6)nc(OCC56CCCN5CC(F)C6)nc4c3F)c12 (stereo not given) + CC(Nc1ccc2c(c1)OCCn1cc(N3C(=O)OCC3C(F)F)nc1-2)C(N)=O | viability, T/C | 98.7
C=CC(=O)N1CCN(c2nc(=O)n(-c3c(C)ccnc3C(C)C)c3nc(-c4c(O)cccc4F)c(F)cc23)C(C)C1 (stereo not given) + CC(Nc1ccc2c(c1)OCCn1cc(N3C(=O)OCC3C(F)F)nc1-2)C(N)=O | viability, T/C | 95.6
Cn1ncc(Cl)c1-c1cc(C(=O)NC(CN)Cc2cccc(F)c2)sc1Cl (stereo not given) + COc1c(OCCCN2CCOCC2)ccc2c3n(c(=NC(=O)c4cnc(N)nc4)nc12)CCN3 | viability, T/C | 77.8
CCCS(=O)(=O)Nc1ccc(F)c(C(=O)c2c[nH]c3ncc(-c4ccc(Cl)cc4)cc23)c1F + COc1c(OCCCN2CCOCC2)ccc2c3n(c(=NC(=O)c4cnc(N)nc4)nc12)CCN3 | viability, T/C | 83
C[C@@H](NC(=O)c1ncnc(N)c1Cl)c1ncc(C(=O)Nc2cc(C(F)(F)F)c(Cl)cn2)s1 + COc1c(OCCCN2CCOCC2)ccc2c3n(c(=NC(=O)c4cnc(N)nc4)nc12)CCN3 | viability, T/C | 117
CC(Cn1ccc(-c2ccc(C#N)c(Cl)c2)n1)NC(=O)c1cc(C(C)O)[nH]n1 (stereo not given) + CC(Nc1ccc2c(c1)OCCn1cc(N3C(=O)OCC3C(F)F)nc1-2)C(N)=O | viability, T/C | 83.4
CCN1CCN(Cc2ccc(Nc3ncc(F)c(-c4cc(F)c5nc(C)n(C(C)C)c5c4)n3)nc2)CC1 + COc1c(OCCCN2CCOCC2)ccc2c3n(c(=NC(=O)c4cnc(N)nc4)nc12)CCN3 | viability, T/C | 45.5
CCN1CCN(Cc2ccc(Nc3ncc(F)c(-c4cc(F)c5nc(C)n(C(C)C)c5c4)n3)nc2)CC1 + CC(Nc1ccc2c(c1)OCCn1cc(N3C(=O)OCC3C(F)F)nc1-2)C(N)=O | viability, T/C | 35.7
C[C@@H](NC(=O)c1ncnc(N)c1Cl)c1ncc(C(=O)Nc2cc(C(F)(F)F)c(Cl)cn2)s1 + CC(Nc1ccc2c(c1)OCCn1cc(N3C(=O)OCC3C(F)F)nc1-2)C(N)=O | viability, T/C | 105

* * *

Test system: 233499-124-R-J3-PDC spheroids with HUVEC/MSC, viability
Experiment: Anticancer human tumor 233499-124-R-J3-PDC cell line growth inhibition [PI3K];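 also: spheroids exposed to agents for seven days before readout; percent viability relative to DMSO vehicle control taken as 100%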
Conditions: second compound 0.316 µM; first compound 0.1 µM; active compounds read low
Value kind: viability, T/C (%)

Molecule | Unit tag | Measured number
CNC(=O)c1ccc(N2C(=S)N(c3ccc(C#N)c(C(F)(F)F)c3)C(=O)C2(C)C)cc1F + CC(Nc1ncnc2nc[nH]c12)c1cc2cccc(Cl)c2c(=O)n1-c1ccccc1 | % | 90.1
Cn1ncc(Cl)c1-c1cc(C(=O)NC(CN)Cc2cccc(F)c2)sc1Cl (stereo not drawn) + CC(Nc1ccc2c(c1)OCCn1cc(N3C(=O)OCC3C(F)F)nc1-2)C(N)=O | % | 94.3
CNC(=O)c1ccc(N2C(=S)N(c3ccc(C#N)c(C(F)(F)F)c3)C(=O)C2(C)C)cc1F + COc1c(OCCCN2CCOCC2)ccc2c3n(c(=NC(=O)c4cnc(N)nc4)nc12)CCN3 | % | 30.5

* * *

Here the recorded viability, T/C is given for each entry.
Tested on: 233499-124-R-J3-PDC spheroids with HUVEC/MSC, viability
Assay: Anticancer human tumor 233499-124-R-J3-PDC cell line growth inhibition [PI3K];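 also: spheroids exposed to agents for seven days before readout; percent viability relative to DMSO vehicle control taken as 100%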
Conditions: second compound 1 µM; first compound 0.316 µM; active compounds read low
Value kind: viability, T/C (%)

Compound | Measured number
C#Cc1c(F)ccc2cc(O)cc(-c3ncc4c(N5CC6CCC(C5)N6)nc(OCC56CCCN5CC(F)C6)nc4c3F)c12 (stereo unspecified) + CC(Nc1ccc2c(c1)OCCn1cc(N3C(=O)OCC3C(F)F)nc1-2)C(N)=O | 58.6
C=CC(=O)N1CCN(c2nc(=O)n(-c3c(C)ccnc3C(C)C)c3nc(-c4c(O)cccc4F)c(F)cc23)C(C)C1 (stereo unspecified) + COc1c(OCCCN2CCOCC2)ccc2c3n(c(=NC(=O)c4cnc(N)nc4)nc12)CCN3 | 12.6
C[C@@H](NC(=O)c1ncnc(N)c1Cl)c1ncc(C(=O)Nc2cc(C(F)(F)F)c(Cl)cn2)s1 + CC(Nc1ncnc2nc[nH]c12)c1cc2cccc(Cl)c2c(=O)n1-c1ccccc1 | 109
C#Cc1c(F)ccc2cc(O)cc(-c3ncc4c(N5CC6CCC(C5)N6)nc(OCC56CCCN5CC(F)C6)nc4c3F)c12 (stereo unspecified) + COc1c(OCCCN2CCOCC2)ccc2c3n(c(=NC(=O)c4cnc(N)nc4)nc12)CCN3 | 8.52
CCCS(=O)(=O)Nc1ccc(F)c(C(=O)c2c[nH]c3ncc(-c4ccc(Cl)cc4)cc23)c1F + CC(Nc1ncnc2nc[nH]c12)c1cc2cccc(Cl)c2c(=O)n1-c1ccccc1 | 99.7
Cn1ncc(Cl)c1-c1cc(C(=O)NC(CN)Cc2cccc(F)c2)sc1Cl (stereo unspecified) + COc1c(OCCCN2CCOCC2)ccc2c3n(c(=NC(=O)c4cnc(N)nc4)nc12)CCN3 | 15.4
CNC(=O)c1ccc(N2C(=S)N(c3ccc(C#N)c(C(F)(F)F)c3)C(=O)C2(C)C)cc1F + COc1c(OCCCN2CCOCC2)ccc2c3n(c(=NC(=O)c4cnc(N)nc4)nc12)CCN3 | 6.89
CNC(=O)c1ccc(N2C(=S)N(c3ccc(C#N)c(C(F)(F)F)c3)C(=O)C2(C)C)cc1F + Cc1nc(NC(=O)N2CCCC2C(N)=O)sc1-c1ccnc(C(C)(C)C(F)(F)F)c1 | 78.9
C=CC(=O)N1CCN(c2nc(=O)n(-c3c(C)ccnc3C(C)C)c3nc(-c4c(O)cccc4F)c(F)cc23)C(C)C1 (stereo unspecified) + CC(Nc1ccc2c(c1)OCCn1cc(N3C(=O)OCC3C(F)F)nc1-2)C(N)=O | 44.3
CC(Cn1ccc(-c2ccc(C#N)c(Cl)c2)n1)NC(=O)c1cc(C(C)O)[nH]n1 (stereo unspecified) + Cc1nc(NC(=O)N2CCCC2C(N)=O)sc1-c1ccnc(C(C)(C)C(F)(F)F)c1 | 83.7
Cn1nccc1Nc1nccc(-c2ccn(C(CO)c3ccc(Cl)c(F)c3)c(=O)c2)n1 (stereo unspecified) + CC(Nc1ncnc2nc[nH]c12)c1cc2cccc(Cl)c2c(=O)n1-c1ccccc1 | 72.9

* * *

Here the recorded viability, T/C is given for each entry.
Tested on: 233499-124-R-J3-PDC spheroids with HUVEC/MSC, viability
Assay: Anticancer human tumor 233499-124-R-J3-PDC cell line growth inhibition [PI3K];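 also: spheroids exposed to agents for seven days before readout; percent viability relative to DMSO vehicle control taken as 100%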
Settings: second compound 0.0316 µM; first compound 0.00949 µM; active compounds read low

Compound | Target entity | Unit tag | viability, T/C
Cn1cnc2c(F)c(Nc3ccc(Br)cc3Cl)c(C(=O)NOCCO)cc21 + CC(Nc1ncnc2nc[nH]c12)c1cc2cccc(Cl)c2c(=O)n1-c1ccccc1 | 233499-124-R-J3-PDC spheroids with HUVEC/MSC, viability | % | 68.9
Cn1cnc2c(F)c(Nc3ccc(Br)cc3Cl)c(C(=O)NOCCO)cc21 + Cc1nc(NC(=O)N2CCCC2C(N)=O)sc1-c1ccnc(C(C)(C)C(F)(F)F)c1 | 233499-124-R-J3-PDC spheroids with HUVEC/MSC, viability | % | 88.1
Cn1cnc2c(F)c(Nc3ccc(Br)cc3Cl)c(C(=O)NOCCO)cc21 + CC(Nc1ccc2c(c1)OCCn1cc(N3C(=O)OCC3C(F)F)nc1-2)C(N)=O | 233499-124-R-J3-PDC spheroids with HUVEC/MSC, viability | % | 80.4
Cn1cnc2c(F)c(Nc3ccc(Br)cc3Cl)c(C(=O)NOCCO)cc21 + COc1c(OCCCN2CCOCC2)ccc2c3n(c(=NC(=O)c4cnc(N)nc4)nc12)CCN3 | 233499-124-R-J3-PDC spheroids with HUVEC/MSC, viability | % | 68.3
